Overview of recorded pIC50 for various compounds
target-of-assay: UniProt P29275
Sequence (P29275 whole entry): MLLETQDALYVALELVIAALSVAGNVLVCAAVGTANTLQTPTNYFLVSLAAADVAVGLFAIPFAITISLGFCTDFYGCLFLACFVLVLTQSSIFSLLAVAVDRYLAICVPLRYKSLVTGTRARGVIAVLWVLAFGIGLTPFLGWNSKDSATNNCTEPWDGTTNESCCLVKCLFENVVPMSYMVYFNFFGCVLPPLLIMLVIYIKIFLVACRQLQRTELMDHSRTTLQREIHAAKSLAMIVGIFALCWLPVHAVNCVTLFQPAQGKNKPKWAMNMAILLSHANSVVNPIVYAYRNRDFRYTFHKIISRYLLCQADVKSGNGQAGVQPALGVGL
pIC50: −log10 of the molar value.

Some entries whose results are on file:
Cc1nc2c(Cl)c(N)nc(-c3cccc(F)c3)n2n1
7.00 to 8.00
CC(=O)Nc1cc2nc(C)nn2c(-c2ccc(S(C)(=O)=O)cc2)n1
< 6.00
Cc1nc2cc(NC(=O)C3CN(C)C3)nc(-c3ccc(C)o3)n2n1
7.00 to 8.00
O=C(Nc1cc2nc(CF)nn2c(-c2ccco2)n1)C1CC1
7.00 to 8.00
O=C(Nc1cc2nc(C3COC3)nn2c(-c2ccco2)n1)C1CC1
7.00 to 8.00
Cc1cn2cc(N)nc(-c3ccc(C)o3)c2n1
6.00 to 7.00
CCOC(=O)Nc1cn2cc(C)nc2c(-c2ccco2)n1
6.00 to 7.00
Cc1nc2cc(NC(=O)C3CC3)nc(-c3ccc(C)o3)n2n1
> 8.00

Problem: What value of pIC50 has been reported for the following compound? CC(=O)Nc1cc2nc(C(C)C)nn2c(-c2ccc(C)o2)n1
Solution: > 8.00

Problem: Continue with COc1ccc(-c2nc(NC(=O)OC(C)(C)C)cc3nc(C)nn23)cc1
Solution: < 6.00

###

List of pIC50 tested on Adenosine A2a (ADORA2A) receptor (Homo sapiens (Human), UniProt P29274).
Sequence (P29274 whole entry): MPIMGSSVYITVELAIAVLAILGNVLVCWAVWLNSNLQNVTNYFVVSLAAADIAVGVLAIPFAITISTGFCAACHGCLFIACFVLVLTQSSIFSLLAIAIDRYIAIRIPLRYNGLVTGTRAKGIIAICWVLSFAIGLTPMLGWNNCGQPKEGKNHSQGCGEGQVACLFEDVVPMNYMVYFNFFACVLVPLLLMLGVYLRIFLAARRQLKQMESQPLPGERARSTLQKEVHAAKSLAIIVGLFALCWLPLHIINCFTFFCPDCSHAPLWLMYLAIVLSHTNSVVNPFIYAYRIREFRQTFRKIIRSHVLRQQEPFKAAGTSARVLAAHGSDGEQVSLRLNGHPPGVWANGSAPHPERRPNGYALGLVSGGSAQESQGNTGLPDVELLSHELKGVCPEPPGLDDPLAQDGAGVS
pIC50: −log10 of the molar value.

Some entries whose results are on file:
Cc1nc2c(C)c(NC(=O)C3CC3)nc(-c3ccc(C)o3)n2n1 [Compound 19]
7.00 to 8.00
Cc1nc2cc(N)nc(-c3cccc(F)c3)n2n1 [Compound 142]
7.00 to 8.00
Cc1nc2cc(NC(=O)OC(C)(C)C)nc(-c3ccc(S(=O)(=O)O)cc3)n2n1 [Compound 124]
6.00 to 7.00
Cc1nc2c(-c3ccc(C)o3)nc(NC(=O)C3CC3)cn2n1 [Compound 169]
> 8.00
Cc1nc2c(Cl)c(N)nc(-c3ccc(F)c(F)c3)n2n1 [Compound 141]
7.00 to 8.00
Cc1cn2c(Cl)c(N)nc(-c3ccccc3)c2n1 [Compound 201]
7.00 to 8.00

Problem: What value of pIC50 has been reported for the following molecule? CN1CC(c2nc3cc(NC(=O)C4CC4)nc(-c4ccco4)n3n2)C1 [Compound 135]
Solution: > 8.00

Problem: Continue with COc1ccc(-c2nc(NC(=O)C3CC3)cc3nc(C)nn23)cc1 [Compound 111]
Solution: 7.00 to 8.00

Problem: Continue with Cc1cn2cc(NC(=O)C(F)F)nc(-c3ccco3)c2n1 [Compound 221]
Solution: > 8.00

###

target-of-assay: Adenosine A2a (ADORA2A) receptor (Homo sapiens (Human))
pIC50: −log10 of the molar value.
measured-parameter: pIC50

Some entries whose results are on file:
Cc1nc2c(C(N)=O)c(N)nc(-c3ccc(C)o3)n2n1
6.00 to 7.00
CC(=O)Nc1cc2nc(C)nn2c(-c2ccoc2)n1
6.00 to 7.00
COc1ccc(-c2nc(NC(C)=O)cc3nc(C)nn23)cc1
6.00 to 7.00
Cc1ccc(-c2nc(NC(=O)C3CC3)cc3nc(C4CCOCC4)nn23)o1
> 8.00
Cc1cc2c(nc(-c3ccc(C)o3)n3nc(C(F)(F)F)nc23)[nH]1
> 8.00

Problem: What value of pIC50 has been reported for the following molecule? Cc1nc2c3nc(C(F)(F)F)[nH]c3nc(-c3ccc(C)o3)n2n1
Solution: 6.00 to 7.00

Problem: Continue with Cc1nc2c(Cl)c(N)nc(-c3ccncc3)n2n1
Solution: 7.00 to 8.00

Problem: Continue with CCS(=O)(=O)Nc1cn2cc(C)nc2c(-c2ccco2)n1
Solution: 6.00 to 7.00

Problem: Continue with Cc1nc2cc(NC(=O)C3CC3)nc(-c3cnn(C)c3)n2n1
Solution: 6.00 to 7.00
